Reference source for all entries: patent US12624112

TARGET_UNDER_TEST: T1, Human ST2-his (human, UniProt Q01638-2 19-328, limits assumed)
T1 construct: Expressed in CHO-K1; The printed range starts at Met1; also called human ST2 fused with a 6-histidine tag at the C-terminus
T1 sequence: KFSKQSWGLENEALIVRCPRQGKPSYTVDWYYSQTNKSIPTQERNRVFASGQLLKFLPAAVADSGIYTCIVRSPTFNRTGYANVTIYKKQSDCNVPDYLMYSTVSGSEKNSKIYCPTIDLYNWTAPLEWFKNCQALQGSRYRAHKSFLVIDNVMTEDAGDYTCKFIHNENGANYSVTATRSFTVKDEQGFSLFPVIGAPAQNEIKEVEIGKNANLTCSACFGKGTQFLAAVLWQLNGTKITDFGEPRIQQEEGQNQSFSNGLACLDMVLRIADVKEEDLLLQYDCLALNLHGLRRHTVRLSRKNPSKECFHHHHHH
PROCEDURE_SUMMARY: SPR Biacore X100, antibody captured on protein A chip, human ST2-his injected, pH 7.4
Protocol: The experiment on the interaction between the anti-human ST2 antibodies and human ST2-his was performed using Biacore X100. Each anti-human ST2 antibody was diluted to 2 µg/mL and captured on the surface of a protein A chip for a capture time of 60 s. […] Association was monitored for 180 s and dissociation was monitored for 700 s, and the sensor surface was regenerated by injecting a solution of glycine at pH 2.0. Kinetic data were analyzed using a simple 1:1 binding model.
MEASUREMENT_LABEL: koff (s⁻¹)
Record the value in s⁻¹, omitting the unit from your answer.

// below: answered binders
BINDER	UNIT_TAG	koff
5888-153-H3L1 (antibody, human IgG4 S228P, kappa, V domains shown, Humanized antibody) VH: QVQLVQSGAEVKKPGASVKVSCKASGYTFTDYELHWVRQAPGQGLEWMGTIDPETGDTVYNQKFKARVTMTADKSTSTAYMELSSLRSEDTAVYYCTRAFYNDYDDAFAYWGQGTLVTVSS VL: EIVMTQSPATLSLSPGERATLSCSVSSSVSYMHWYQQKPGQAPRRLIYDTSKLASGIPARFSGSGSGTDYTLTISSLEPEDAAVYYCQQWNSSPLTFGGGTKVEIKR	s⁻¹	0.000148
5888-379-H1L0 (antibody, human IgG4 S228P, kappa, V domains shown, Humanized antibody) VH: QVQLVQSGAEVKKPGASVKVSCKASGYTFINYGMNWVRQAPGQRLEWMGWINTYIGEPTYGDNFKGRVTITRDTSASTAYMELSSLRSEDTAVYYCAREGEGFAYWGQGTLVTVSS VL: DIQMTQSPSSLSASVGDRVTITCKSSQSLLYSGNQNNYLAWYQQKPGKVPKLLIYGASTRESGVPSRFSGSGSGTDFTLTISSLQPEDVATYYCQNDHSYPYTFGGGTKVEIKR	s⁻¹	0.000351
5888-153-H0L1 (antibody, human IgG4 S228P, kappa, V domains shown, Humanized antibody) VH: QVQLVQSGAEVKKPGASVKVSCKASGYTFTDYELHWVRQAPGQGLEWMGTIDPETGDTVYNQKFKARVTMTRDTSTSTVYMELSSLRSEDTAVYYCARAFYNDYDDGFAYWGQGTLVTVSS VL: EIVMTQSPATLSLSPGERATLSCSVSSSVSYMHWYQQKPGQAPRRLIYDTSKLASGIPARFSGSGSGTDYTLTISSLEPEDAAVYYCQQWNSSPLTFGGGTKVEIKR	s⁻¹	0.000176
5888-379-H2L2 (antibody, human IgG4 S228P, kappa, V domains shown, Humanized antibody) VH: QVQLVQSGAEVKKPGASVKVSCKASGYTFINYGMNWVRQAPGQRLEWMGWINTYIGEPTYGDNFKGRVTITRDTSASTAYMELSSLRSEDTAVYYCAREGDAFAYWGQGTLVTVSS VL: DIVMTQSPDSLAVSLGERATINCKSSQSLLYSGNQNNYLAWYQQKPGQPPKLLIYGASTRESGVPDRFSGSGSGTDFTLTISSLQAEDVAVYYCQNDHSYPYTFGGGTKVEIKR	s⁻¹	0.000702

Turning now to a further record.
Ask: Answer with the recorded koff for the binder listed here: 5888-379-H2L1 (antibody, human IgG4 S228P, kappa, V domains shown, Humanized antibody) VH: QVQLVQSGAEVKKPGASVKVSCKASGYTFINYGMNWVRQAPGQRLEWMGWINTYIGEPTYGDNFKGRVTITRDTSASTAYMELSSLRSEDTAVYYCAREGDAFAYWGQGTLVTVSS VL: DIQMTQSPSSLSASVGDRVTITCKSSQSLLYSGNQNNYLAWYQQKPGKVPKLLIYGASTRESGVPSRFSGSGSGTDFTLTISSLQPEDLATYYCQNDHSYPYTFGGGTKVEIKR
Reply: 0.000485
